Recorded Activity values for a group of molecules are listed next.
# Test system: Enterococcus faecium
# MEASUREMENT_DESCRIPTION: Antibacterial activity against vancomycin-resistant Enterococcus faecium HM-952 infected in C57BL/6 mouse assessed as log reduction in bacterial colony forming unit in feces at 20 mg/kg,po qd measured after 7 days of administration
# Assay type: functional
# ASSAY_CONDITIONS: time 7 day
State the value, then name its unit.

Consider the reported Activity for these molecules:
**Q:** Recorded Activity of CC(=O)NC[C@H]1CN(c2ccc(N3CCOCC3)c(F)c2)C(=O)O1 [LINEZOLID] , please.
**A:** 1.07 log10CFU

**Q:** Recorded Activity of CC(=O)Nc1nnc(S(N)(=O)=O)s1 [ACETAZOLAMIDE] , please.
**A:** 2.16 log10CFU

**Q:** Recorded Activity of CC(C)(C)CC(=O)Nc1nnc(S(N)(=O)=O)s1 , please.
**A:** 2.16 log10CFU

**Q:** Recorded Activity of NS(=O)(=O)c1nnc(NC(=O)CCC2CCCCC2)s1 , please.
**A:** 2.16 log10CFU

// moving on: another record for Activity
**Q:** Recorded Activity of NS(=O)(=O)c1nnc(NC(=O)CN2CCOCC2)s1 , please.
**A:** 2.16 log10CFU

====

# MEASUREMENT_DESCRIPTION: Aqueous solubility of the compound in PBS buffer at pH 7.4 by HPLC analysis
# Assay type: physicochemical
PARAMETER_MEASURED: solubility (µM)
Provide the reading as a plain figure in µM.

**Q:** Recorded solubility of NS(=O)(=O)c1nnc(NC(=O)CN2CCOCC2)s1 , please.
**A:** 127

// moving on: another record for solubility
**Q:** Recorded solubility of NS(=O)(=O)c1nnc(NC(=O)CCC2CCCCC2)s1 , please.
**A:** 33

====

Recorded logD at 2.333 h values for a group of molecules are listed next.
# MEASUREMENT_DESCRIPTION: Distribution coefficient between 1-Octanol and PBS buffer, logD of the compound at pH 7.4 incubated for 140 mins by HPLC anlaysis
# Type: physicochemical
# ASSAY_CONDITIONS: 1-octanol/PBS buffer
Reply briefly: the number, and no unit.

**Q:** Recorded logD at 2.333 h of NS(=O)(=O)c1nnc(NC(=O)CN2CCOCC2)s1 , please.
**A:** -1.38

**Q:** Recorded logD at 2.333 h of CC(C)(C)CC(=O)Nc1nnc(S(N)(=O)=O)s1 , please.
**A:** 1.36

**Q:** Recorded logD at 2.333 h of NS(=O)(=O)c1nnc(NC(=O)CCC2CCCCC2)s1 , please.
**A:** 2.26

====

# MEASUREMENT_DESCRIPTION: Apparent permeability across apical to basolateral side in human Caco2 cells
# Format: ADME, cell-based
# ASSAY_CONDITIONS: Caco-2
PARAMETER_MEASURED: Papp A→B (×10⁻⁶ cm/s)
Provide the reading as a plain figure in ×10⁻⁶ cm/s.

**Q:** Recorded Papp A→B of CC(C)(C)CC(=O)Nc1nnc(S(N)(=O)=O)s1 , please.
**A:** 3.7

====

# Tested on: Enterococcus faecium
# MEASUREMENT_DESCRIPTION: Antibacterial activity against vancomycin-resistant Enterococcus faecium HM-952 infected in C57BL/6 mouse assessed as log reduction in bacterial colony forming unit in feces at 20 mg/kg,po qd measured after 3 days of administration
# Format: functional
# ASSAY_CONDITIONS: time 3 day
PARAMETER_MEASURED: Activity (log10CFU)
Provide the reading as a plain figure in log10CFU.

Consider the reported Activity for these molecules:
**Q:** Recorded Activity of NS(=O)(=O)c1nnc(NC(=O)CN2CCOCC2)s1 , please.
**A:** 1

**Q:** Recorded Activity of CC(=O)Nc1nnc(S(N)(=O)=O)s1 [ACETAZOLAMIDE] , please.
**A:** 1

**Q:** Recorded Activity of CC(C)(C)CC(=O)Nc1nnc(S(N)(=O)=O)s1 , please.
**A:** 1

// moving on: another record for Activity
**Q:** Recorded Activity of NS(=O)(=O)c1nnc(NC(=O)CCC2CCCCC2)s1 , please.
**A:** 1

Value source: ChEMBL document CHEMBL5252663
